Measured remaining activity at 10 µM values are reported for all entries that follow.
# tested target: P2X7 (Homo sapiens (Human), UniProt Q99572)
# Sequence (Q99572 whole entry): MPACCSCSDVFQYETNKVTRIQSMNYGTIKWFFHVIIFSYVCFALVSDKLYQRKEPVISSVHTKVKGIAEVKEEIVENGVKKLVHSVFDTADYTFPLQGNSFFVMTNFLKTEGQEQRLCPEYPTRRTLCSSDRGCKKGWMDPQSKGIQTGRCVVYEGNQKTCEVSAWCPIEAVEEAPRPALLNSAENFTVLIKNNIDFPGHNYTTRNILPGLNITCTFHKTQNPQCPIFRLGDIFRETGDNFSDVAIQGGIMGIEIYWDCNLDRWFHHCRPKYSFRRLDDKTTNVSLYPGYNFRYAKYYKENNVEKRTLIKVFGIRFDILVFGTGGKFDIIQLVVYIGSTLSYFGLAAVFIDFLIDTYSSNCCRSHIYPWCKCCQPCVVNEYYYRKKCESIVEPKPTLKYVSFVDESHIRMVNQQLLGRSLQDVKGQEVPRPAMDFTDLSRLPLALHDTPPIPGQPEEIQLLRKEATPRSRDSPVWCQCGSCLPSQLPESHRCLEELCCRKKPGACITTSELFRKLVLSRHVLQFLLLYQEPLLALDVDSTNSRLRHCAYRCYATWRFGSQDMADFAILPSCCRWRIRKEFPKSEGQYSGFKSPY
# assay info: P2X7 antagonism in human PBMCs (IL-1β release, ELISA)
# Type: cell-based
# study conditions: test compound 10 μM, IL-1β release in human PBMCs, LPS 30 ng/ml + Bz-ATP 0.5 mM, read-out: PBMC 10 μM (% control)
Record the value in %, omitting the unit from your answer.

CCc1nc2c(c(-c3ccn[nH]3)n1)CC(C)N(C(=O)c1ccc(Cl)c(F)c1Cl)C2 (stereo not drawn) : -1.3
Cc1nc2c(c(-c3ccn[nH]3)n1)CC(C)N(C(=O)c1cc(Cl)ccc1Cl)C2 (stereo not drawn) : 92.2

Prompt: Test system P2X7 (Homo sapiens (Human), UniProt Q99572); read-out remaining activity at 10 µM; what value for "Cc1cccc(C(=O)N2CCc3c(ncnc3-c3ccccn3)C2)c1Cl" ?
Completion: 13.4

Prompt: Test system P2X7 (Homo sapiens (Human), UniProt Q99572); read-out remaining activity at 10 µM; what value for "Cc1nc2c(c(-c3cnoc3)n1)CCN(C(=O)c1cccc(C(F)(F)F)c1Cl)C2" ?
Completion: 16.3
